system: human venous whole blood, CD8 positive population (pERK); assay: DGK human whole blood pERK assay; type: cell-based; conditions: Homo sapiens, CD8 positive, read-out: DGK HWB, human whole blood pERK
endpoint: pEC50
Entry type: numeric. Quantity: pEC50, the -log10 of concentration in molar units.

Record excerpt, results attached:
[
  {
    "compound": "CC[C@@H]1CN(c2cc(=O)n(C)c3ccc(C#N)nc23)[C@@H](C)C[C@H]1Oc1ccc(OC(C)C)cn1",
    "pEC50": 4.89
  },
  {
    "compound": "CC[C@@H]1CN(c2nc(=O)n(C)c3ccc(C#N)nc23)[C@@H](C)C[C@H]1Oc1ccc(OC(C)C)cn1",
    "pEC50": 4.96
  },
  {
    "compound": "CC[C@@H]1CN(c2cc(=O)n(C)c3ccc(C#N)nc23)CC[C@H]1Oc1cccc(C(C)(C)C)c1 (single isomer, unassigned)",
    "pEC50": 6.22
  },
  {
    "compound": "CC[C@@H]1CN(c2cc(=O)n(C)c3ccc(C#N)nc23)[C@@H](C)C[C@@H]1Oc1ccc(OC(C)C)cn1",
    "pEC50": 6.11
  },
  {
    "compound": "CC1CN(c2c(C#N)c(=O)n(C)c3ccc(C#N)nc23)CCC1N(C)C(=O)c1ccc(C(F)(F)F)cc1 (single isomer, unassigned)",
    "pEC50": 4.70
  }
]

Asked: Supply measured pEC50 of CC(C)Oc1ccc(OC2C[C@H](C)N(c3nc(=O)n(C)c4ccc(C#N)nc34)C[C@@H]2C)nc1 (mixture of isomers) in your reply.
Given back: 6.23

Asked: Supply measured pEC50 of "CC[C@@H]1CN(c2cc(=O)n(C)c3ccc(C#N)nc23)[C@H](C)C[C@H]1Oc1ccc(OC(C)C)cn1" in your reply.
Given back: 6.17

----------
target: human DGKζ (Homo sapiens (Human), UniProt Q13574); assay: biochemical; type: biochemical; settings: Table A; liposome (LIPGLO) assay; read-out: DGKζ
Sequence (Q13574 whole entry, looked up): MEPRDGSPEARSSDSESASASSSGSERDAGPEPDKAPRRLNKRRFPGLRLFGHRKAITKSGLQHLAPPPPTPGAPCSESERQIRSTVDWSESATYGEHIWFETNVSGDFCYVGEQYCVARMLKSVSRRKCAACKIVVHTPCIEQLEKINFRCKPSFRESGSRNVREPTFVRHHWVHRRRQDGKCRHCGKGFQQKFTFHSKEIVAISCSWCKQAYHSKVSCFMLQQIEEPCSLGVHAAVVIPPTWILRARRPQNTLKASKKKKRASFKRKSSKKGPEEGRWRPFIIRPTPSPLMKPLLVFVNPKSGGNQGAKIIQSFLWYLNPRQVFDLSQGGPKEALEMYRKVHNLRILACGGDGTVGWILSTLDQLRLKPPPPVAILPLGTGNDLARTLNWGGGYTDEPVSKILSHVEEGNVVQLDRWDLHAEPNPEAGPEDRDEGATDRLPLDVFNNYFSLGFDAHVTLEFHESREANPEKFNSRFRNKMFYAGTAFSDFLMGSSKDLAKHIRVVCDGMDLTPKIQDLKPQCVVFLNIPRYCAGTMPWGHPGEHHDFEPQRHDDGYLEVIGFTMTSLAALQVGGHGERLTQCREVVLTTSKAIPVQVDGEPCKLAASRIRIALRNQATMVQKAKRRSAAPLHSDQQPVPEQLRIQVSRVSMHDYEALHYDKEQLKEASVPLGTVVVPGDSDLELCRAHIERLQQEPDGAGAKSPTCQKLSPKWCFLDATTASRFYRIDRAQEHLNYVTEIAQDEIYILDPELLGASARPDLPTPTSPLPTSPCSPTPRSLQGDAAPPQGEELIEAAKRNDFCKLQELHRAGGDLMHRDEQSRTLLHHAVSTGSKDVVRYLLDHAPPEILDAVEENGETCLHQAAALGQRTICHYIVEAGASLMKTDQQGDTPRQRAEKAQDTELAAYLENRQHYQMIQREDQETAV
Catalogue of pIC50 readings, one per entry.
Entry type: numeric. Quantity: pIC50, the -log10 of concentration in molar units.

Asked: Supply measured pIC50 of Cn1c(=O)cc(N2CC[C@H](Oc3cccc(C(F)(F)F)c3)[C@@H](O)C2)c2nc(C#N)ccc21 (racemic) [Example 260] in your reply.
Given back: 3.85

Asked: Supply measured pIC50 of Cn1c(=O)nc(N2CC[C@@H](Oc3cccc(C(F)(F)F)c3)[C@H](O)C2)c2nc(Cl)ccc21 (racemic) [Example 271] in your reply.
Given back: 4.55

Asked: Supply measured pIC50 of CC1CN(c2cc(=O)n(C)c3ccc(C#N)nc23)CCC1N(C)C(=O)c1ccc(F)cc1 (single isomer, unassigned) [Example 284] in your reply.
Given back: 3.92

----------
Tested on: Human venous whole blood (IFN-γ)
Assay: Human whole blood IFN-γ assay
Assay type: cell-based
Settings: Homo sapiens, 24 h, human whole blood, anti-CD3 plus anti-CD28, 24 hours; read-out: INFg Whole Blood Normalized Agonist EC50
Description: Assay 10: Human Whole Blood IFN-γ Assay Human venous whole blood (22.5 μL per well), obtained from healthy donors, was pre-treated with compounds for one hour at 37° C. in a humidified 95% air/5% CO2 incubator. The blood was stimulated with 2.5 μL anti-human CD3 and anti-CD28 mAb at a final concentration of 1 μg/mL each for 24 hours at 37° C. IFN-γ in the supernatants was measured using AlphLISA kit (Cat #AL217).
endpoint: EC50 (µM)
The reply should contain only the number, in µM.

Record excerpt, results attached:
[
  {
    "compound": "CC[C@@H]1CN(c2cc(=O)n(C)c3ccc(C#N)nc23)CC[C@H]1Oc1ccc(C(C)C)cc1 (racemic)",
    "measurement.unit": "µM",
    "quantitative.readout": 2.2
  },
  {
    "compound": "C[C@@H]1CN(c2cc(=O)n(C)c3ccc(C#N)nc23)CC[C@@H]1Oc1ccc(OC(C)(C)C)cc1",
    "measurement.unit": "µM",
    "quantitative.readout": 1.5
  },
  {
    "compound": "C[C@@H]1CN(c2cc(=O)n(C)c3ccc(C#N)nc23)CC[C@H]1Oc1ccc(C(F)(F)F)cc1F",
    "measurement.unit": "µM",
    "quantitative.readout": 4.1
  },
  {
    "compound": "Cn1c(=O)c(C#N)c(N2CCC(Oc3ccc(OC(F)(F)F)cc3)CC2)c2nc(Cl)ccc21",
    "measurement.unit": "µM",
    "quantitative.readout": 10
  },
  {
    "compound": "C[C@@H]1CN(c2cc(=O)n(C)c3ccc(C#N)nc23)CC[C@H]1Oc1ccc(F)cc1F (racemic)",
    "measurement.unit": "µM",
    "quantitative.readout": 4.1
  },
  {
    "compound": "Cn1c(=O)c([N+](=O)[O-])c(N2CCC(Oc3ccc(OC(F)(F)F)cc3)CC2)c2cc(F)ccc21",
    "measurement.unit": "µM",
    "quantitative.readout": 10
  },
  {
    "compound": "C[C@@H]1CN(c2cc(=O)n(C)c3ccc(C#N)nc23)CC[C@H]1Oc1ccc(F)c(F)c1 (single isomer, unassigned) [Example 104]",
    "measurement.unit": "µM",
    "quantitative.readout": 1.8
  },
  {
    "compound": "Cc1cc(OC2CCN(c3cc(=O)n(C)c4ccc(C#N)nc34)CC2)ccc1C(C)C",
    "measurement.unit": "µM",
    "quantitative.readout": 7.9
  },
  {
    "compound": "CC(C)Oc1ccc(OC2CCN(c3cc(=O)n(C)c4ccc(C#N)nc34)CC2)nc1",
    "measurement.unit": "µM",
    "quantitative.readout": 0.82
  },
  {
    "compound": "C[C@@H]1CN(c2cc(=O)n(C)c3ccc(C#N)nc23)CC[C@H]1Oc1c(F)cccc1F [Example 125]",
    "measurement.unit": "µM",
    "quantitative.readout": 20
  }
]

Asked: Supply measured EC50 of "CCCc1ccc(OC2CCN(c3cc(=O)n(C)c4ccc(C#N)nc34)CC2)cc1" in your reply.
Given back: 4.3

Asked: Supply measured EC50 of "Cc1cccc(O[C@@H]2CCN(c3c(C#N)c(=O)n(C)c4ccc(C#N)nc34)C[C@H]2C)c1" in your reply.
Given back: 20

Asked: Supply measured EC50 of "COc1ccc2c(n1)c(N1CCC(Oc3ccc(OC(F)(F)F)cc3)CC1)c(C#N)c(=O)n2C" in your reply.
Given back: 6.4

Asked: Supply measured EC50 of "Cn1c(=O)cc(N2CCC(Oc3cnc4ccccc4n3)CC2)c2nc(C#N)ccc21" in your reply.
Given back: 17

Asked: Supply measured EC50 of "Cn1c(=O)cc(N2CCC(Oc3ccc(C4CCCC4)cc3)CC2)c2nc(C#N)ccc21" in your reply.
Given back: 5.9

----------
Catalogue of pEC50 readings, one per entry.
tested on: Human venous whole blood (IFN-γ); assay: Human whole blood IFN-γ assay; format: cell-based; details: Homo sapiens, human whole blood IFN-γ; read-out: INFg Whole Blood
Entry type: numeric. Quantity: pEC50, the -log10 of concentration in molar units.

[
  {
    "compound": "CC(C)Oc1ccc(OC2CCN(c3cc(=O)n(C)c4ccc(C#N)nc34)CC2(C)C)nc1 (racemic)",
    "study.target": "Human venous whole blood (IFN-γ)",
    "pEC50": 5.15
  },
  {
    "compound": "C[C@@H]1CN(c2cc(=O)n(C)c3ccc(C#N)nc23)CC[C@@H]1Oc1ccc(C(F)F)cn1 [Example 208]",
    "study.target": "Human venous whole blood (IFN-γ)",
    "pEC50": 5.68
  },
  {
    "compound": "C[C@@H]1CN(c2cc(=O)n(C)c3ccc(C#N)nc23)CC[C@@H]1Oc1ncccn1",
    "study.target": "Human venous whole blood (IFN-γ)",
    "pEC50": 4.70
  },
  {
    "compound": "CC(C)c1ccnc(O[C@H]2CCN(c3cc(=O)n(C)c4ccc(C#N)nc34)C[C@H]2C)c1",
    "study.target": "Human venous whole blood (IFN-γ)",
    "pEC50": 5.41
  },
  {
    "compound": "CC[C@@H]1CN(c2cc(=O)n(C)c3ccc(C#N)nc23)CC[C@H]1Oc1ccc(OC(C)C)cn1",
    "study.target": "Human venous whole blood (IFN-γ)",
    "pEC50": 6.54
  },
  {
    "compound": "Cn1c(=O)nc(N2CC[C@@H](Oc3cccc(C(F)(F)F)c3)[C@H](O)C2)c2nc(C#N)ccc21 (single isomer, unassigned)",
    "study.target": "Human venous whole blood (IFN-γ)",
    "pEC50": 5.09
  },
  {
    "compound": "C[C@@H]1CN(c2cc(=O)n(C)c3ccc(C#N)nc23)CC[C@@H]1Oc1ccc(C(F)(F)F)cc1 (racemic)",
    "study.target": "Human venous whole blood (IFN-γ)",
    "pEC50": 5.80
  },
  {
    "compound": "CCCc1cc(O[C@@H]2CCN(c3cc(=O)n(C)c4ccc(C#N)nc34)C[C@H]2CC)ccc1F",
    "study.target": "Human venous whole blood (IFN-γ)",
    "pEC50": 6.48
  }
]

In the following, a different compound is considered.
Asked: Supply measured pEC50 of "COc1ccc(-c2c(N3CCC(Oc4ccc(OC(F)(F)F)cc4)CC3)c3nc(C#N)ccc3n(C)c2=O)cn1" in your reply.
Given back: 5.28
